// reported RLU per item
target: human TAS2R1 (Homo sapiens, UniProt Q9NYW7); construct: expressed in transfected cells; host or cells: HEK293T-Gα16gust44; assay: Calcium imaging assay (FLIPR), HEK293T-Gα16gust44 cells transfected with human TAS2R1; assay type: cell-based; conditions: Time 52.781 s
Sequence (Q9NYW7 whole entry): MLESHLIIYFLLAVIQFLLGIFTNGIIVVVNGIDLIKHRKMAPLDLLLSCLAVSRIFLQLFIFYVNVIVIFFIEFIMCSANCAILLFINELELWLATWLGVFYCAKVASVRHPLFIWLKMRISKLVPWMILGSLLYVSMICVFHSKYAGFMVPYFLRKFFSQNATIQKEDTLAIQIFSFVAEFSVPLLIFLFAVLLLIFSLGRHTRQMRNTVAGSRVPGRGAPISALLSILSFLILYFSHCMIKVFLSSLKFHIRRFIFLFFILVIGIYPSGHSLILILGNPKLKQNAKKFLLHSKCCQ
Record the value in RLU, omitting the unit from your answer.

>>> value_reported("C[C@H](CCC(=O)O)[C@H]1CC[C@H]2[C@@H]3CC[C@@H]4C[C@H](O)CC[C@]4(C)[C@H]3C[C@H](O)[C@]12C")
383.683

Suppose we examine the compound `C[C@H](CCC(=O)NCCS(=O)(=O)O)[C@H]1CC[C@H]2[C@@H]3CC[C@@H]4C[C@H](O)CC[C@]4(C)[C@H]3CC[C@]12C` ; what RLU value has been reported?
642.403

Could you share which RLU value was measured for `C[C@H](CCC(=O)NCC(=O)O)[C@H]1CC[C@H]2[C@@H]3[C@H](O)C[C@@H]4C[C@H](O)CC[C@]4(C)[C@H]3C[C@H](O)[C@]12C` ?
583.343

Endpoint output: RLU of `C[C@H](CCC(=O)NCCS(=O)(=O)O)[C@H]1CC[C@H]2[C@@H]3[C@H](O)C[C@@H]4C[C@H](O)CC[C@]4(C)[C@H]3C[C@H](O)[C@]12C` . Value?
390.659

----------
Catalogue of compounds with associated RLU
biological target: human TAS2R1 (Homo sapiens, UniProt Q9NYW7); construct: expressed in transfected cells; host or cells: HEK293T-Gα16gust44; assay: Calcium imaging assay (FLIPR), HEK293T-Gα16gust44 cells transfected with human TAS2R1; type: cell-based; settings: calcium trace, sheet TAS2R1; Time 317.547 s

Study these solved cases before continuing.
>>> value_reported("C[C@H](CCC(=O)NCCS(=O)(=O)O)[C@H]1CC[C@H]2[C@@H]3[C@H](O)C[C@@H]4C[C@H](O)CC[C@]4(C)[C@H]3C[C@H](O)[C@]12C")
"-15.9144 RLU"
>>> value_reported("C[C@H](CCC(=O)O)[C@H]1CC[C@H]2[C@@H]3CC[C@@H]4C[C@H](O)CC[C@]4(C)[C@H]3C[C@H](O)[C@]12C")
"129.733 RLU"
>>> value_reported("C[C@H](CCC(=O)NCC(=O)O)[C@H]1CC[C@H]2[C@@H]3[C@H](O)C[C@@H]4C[C@H](O)CC[C@]4(C)[C@H]3C[C@H](O)[C@]12C")
"43.3091 RLU"

Please examine the following record next.
Record `C[C@H](CCC(=O)NCCS(=O)(=O)O)[C@H]1CC[C@H]2[C@@H]3CC[C@@H]4C[C@H](O)CC[C@]4(C)[C@H]3CC[C@]12C` : what is its RLU with human TAS2R1 (Homo sapiens, UniProt Q9NYW7)?
-201.311 RLU

----------
Below, each of the molecules is paired with its reported RLU value.
molecular target: human TAS2R1 (Homo sapiens); construct: expressed in transfected cells; host or cells: HEK293T-Gα16gust44; assay: Calcium imaging assay (FLIPR), HEK293T-Gα16gust44 cells transfected with human TAS2R1; assay type: cell-based; conditions: Time 137.562 s
Write down the numeric answer in RLU and omit the unit.

The cases that follow already have their RLU on record.
>>> value_reported("C[C@H](CCC(=O)O)[C@H]1CC[C@H]2[C@@H]3[C@H](O)C[C@@H]4C[C@H](O)CC[C@]4(C)[C@H]3CC[C@]12C")
528.381
>>> value_reported("C[C@H](CCC(=O)O)[C@H]1CC[C@H]2[C@@H]3[C@@H](O)C[C@@H]4C[C@H](O)CC[C@]4(C)[C@H]3CC[C@]12C")
220.326
>>> value_reported("C[C@H](CCC(=O)O)[C@H]1CC[C@H]2[C@@H]3[C@H](O)C[C@@H]4C[C@H](O)CC[C@]4(C)[C@H]3C[C@H](O)[C@]12C")
368.206

// next entry
Report RLU for `C[C@H](CCC(=O)O)[C@H]1CC[C@H]2[C@@H]3CC[C@@H]4C[C@H](O)CC[C@]4(C)[C@H]3CC[C@]12C` please.
816.516
